testMethodNotes: The compound was tested for toxicity against human renal cancer cell line RXF-393
Type: functional, cell-based
recordedConditions: cancer cell lines
parameterMeasured: pEC50
Hey, just a heads up that pEC50 is the negative log base 10 of the concentration in molar.

Item under review: CN[C@@H](C)C(=O)N[C@H](C(=O)N1CCC[C@H]1C(=O)N[C@@H]1CCCc2ccccc21)C(C)(C)C . Reported pEC50? 6.09

Also CN[C@@H](C)C(=O)N[C@H](C(=O)N1CCC[C@H]1C(=O)N[C@@H]1CCCc2ccccc21)C1CCCCC1 ? 5.96

###

targetEntity: E3 ubiquitin-protein ligase XIAP (Homo sapiens, UniProt P98170)
Sequence (P98170 whole entry, the tested form may be a part): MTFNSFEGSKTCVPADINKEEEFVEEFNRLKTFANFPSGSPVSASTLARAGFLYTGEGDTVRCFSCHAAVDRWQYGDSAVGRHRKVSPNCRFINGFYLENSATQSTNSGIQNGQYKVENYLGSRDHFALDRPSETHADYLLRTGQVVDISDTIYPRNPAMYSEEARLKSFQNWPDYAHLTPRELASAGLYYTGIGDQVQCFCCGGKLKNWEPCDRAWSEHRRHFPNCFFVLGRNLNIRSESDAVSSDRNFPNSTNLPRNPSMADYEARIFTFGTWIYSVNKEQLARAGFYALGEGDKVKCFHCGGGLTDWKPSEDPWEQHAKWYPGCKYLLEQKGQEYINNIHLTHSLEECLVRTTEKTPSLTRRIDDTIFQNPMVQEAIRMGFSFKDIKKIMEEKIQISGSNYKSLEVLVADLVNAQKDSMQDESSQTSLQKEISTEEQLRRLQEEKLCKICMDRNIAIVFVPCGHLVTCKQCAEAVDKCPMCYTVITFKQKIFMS
testMethodNotes: Binding affinity to the BIR3 domain of X-linked IAP
Square brackets hold non-standard residues; d marks the D form. Peptide text beside a SMILES is read from it. ξ: configuration not given here. Phe(4-Cl) = N[C@@H](Cc1ccc(Cl)cc1)C(=O)O; 2Nal = N[C@@H](Cc1ccc2ccccc2c1)C(=O)O; hPhe = N[C@@H](CCc1ccccc1)C(=O)O; Tle = CC(C)(C)[C@H](N)C(=O)O; Nle = CCCC[C@H](N)C(=O)O; Aib = CC(C)(N)C(=O)O; ξNMeA = CNC(C)C(=O)O; ξAze = O=C(O)C1CCN1; Sar = CNCC(=O)O
Just a reminder that ties go to F: only Kd strictly below 200 nM counts as T.

Below 200 nM on Kd? Entry CC(C)[C@H](NC(=O)[C@H](C)N)C(=O)N1CCC1C(=O)N[C@@H](Cc1ccccc1)C(=O)N[C@@H](Cc1ccc(O)cc1)C(=O)O (stereo partly specified) (H-AV[ξAze]FY-OH) T

Also CCCC[C@H](NC(=O)[C@@H]1CCCN1C(=O)[C@@H](NC(=O)[C@H](C)N)C(C)C)C(=O)N[C@@H](Cc1ccc(O)cc1)C(=O)O (H-AVP[Nle]Y-OH) ? F

Also CC(C)[C@H](NC(=O)[C@H](C)N)C(=O)N(C)CC(=O)N[C@@H](Cc1ccccc1)C(=O)N[C@@H](Cc1ccc(O)cc1)C(=O)O (H-AV[Sar]FY-OH) ? F

Also CC(C)[C@H](NC(=O)[C@H](C)N)C(=O)N1CCC[C@H]1C(=O)N[C@@H](Cc1ccc(Cl)cc1)C(=O)N[C@@H](Cc1ccc(O)cc1)C(=O)O (H-AVP[Phe(4-Cl)]Y-OH) ? T

Also CC(C)C[C@@H](NC(=O)[C@H](C)N)C(=O)N1CCC[C@H]1C(=O)N[C@@H](Cc1ccccc1)C(=O)N[C@@H](Cc1ccc(O)cc1)C(=O)O ? T

Also CC(C(=O)N1CCC[C@H]1C(=O)N[C@@H](Cc1ccccc1)C(=O)N[C@@H](Cc1ccc(O)cc1)C(=O)O)N(C)C(=O)[C@H](C)N (stereo partly specified) (H-A[ξNMeA]PFY-OH) ? F

Also CC(C)[C@H](NC(=O)[C@H](C)N)C(=O)N1CCC[C@H]1C(=O)NC(C)(C)C(=O)N[C@@H](Cc1ccc(O)cc1)C(=O)O (H-AVP[Aib]Y-OH) ? F

Also CC(C)[C@H](NC(=O)[C@H](C)N)C(=O)N(C)C(C)C(=O)N[C@@H](Cc1ccccc1)C(=O)N[C@@H](Cc1ccc(O)cc1)C(=O)O (stereo partly specified) (H-AV[ξNMeA]FY-OH) ? F

Also CC(C)[C@H](NC(=O)[C@H](C)N)C(=O)N1CCC[C@H]1C(=O)N[C@@H](CCc1ccccc1)C(=O)N[C@@H](Cc1ccc(O)cc1)C(=O)O (H-AVP[hPhe]Y-OH) ? T

Also CC(C)[C@H](NC(=O)[C@H](C)N)C(=O)N1CCC[C@H]1C(=O)N[C@@H](Cc1ccc2ccccc2c1)C(=O)N[C@@H](Cc1ccc(O)cc1)C(=O)O (H-AVP[2Nal]Y-OH) ? T

Also C[C@H](N)C(=O)N[C@H](C(=O)N1CCC[C@H]1C(=O)N[C@@H](Cc1ccccc1)C(=O)N[C@@H](Cc1ccc(O)cc1)C(=O)O)C(C)(C)C (H-A[Tle]PFY-OH) ? T
